The measured values listed here are drawn from patent US10662555B2.

Below: a set of entries, each annotated with reported logP.
Experiment Description: octanol-water partition coefficient (Log P) at 25° C., shake flask method
Condition Description: octanol/water
Answer with a number only.

// solved cases for logP follow
1. Cc1nccn1C    0.11
2. CCN(CC)CC    1.45

# evaluate next
response.value for `Cn1ccnc1` (field: logP) = -0.19
